Measured koff accompanies every entry in the list below.
# Assayed system: T1, recombinant human Tim-3-Fc (R&D Systems, 2365-TM) (human, UniProt Q8TDQ0 22-202, biotinylated in the Galectin-9 competition ELISA (sites not given))
# T1 construct: Bought protein; also called huTim-3-Fc; biotinylated Tim-3-Fc; not shown: Fc of the bought fusion protein
# Experiment summary: SPR Biacore, human Tim-3 Fc;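 further: antibodies captured on an anti-FLAG sensor surface, Tim-3-Fc flowed over as analyte at 25 °C in HBS-EP+ buffer, rates fit with a 1:1 Langmuir model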
# value in s⁻¹; strip the unit string

Worked examples follow.
h22E11-VK1-39 × h22E11-VH5-51 (antibody, V domains shown, Humanized m22E11) VH: EVQLVQSGAEVKKPGESLKISCKVSGFSLTSYGVHWVRQMPGKGLEWLVVIWSDGSTTYNPSFQGQVTISKDKSISTVYLQWSSLKASDTAMYYCARQGGYRYDDAMDYWGQGTLVTVSS VL: DIQLTQSPSSLSASVGDRVTITCKASQSVDYDGNSYVNWYQQKPGKAPKLLIYAASNLESGVPSRFSGSGSGTDFTLTISSLQPEDFATYYCQQSNEDPYTFGQGTKVEIK; 0.000947
h22E11-VK3-11 × h22E11-VH3-23 (antibody, V domains shown, Humanized m22E11) VH: EVQLLESGGGLVQPGGSLRLSCAVSGFSLTSYGVHWVRQAPGKGLEWLVVIWSDGSTTYNDSVKGRFTISKDNSKNTVYLQMNSLRAEDTAVYYCARQGGYRYDDAMDYWGQGTLVTVSS VL: EIVLTQSPATLSLSPGERATLSCKASQSVDYDGNSYVNWYQQKPGQAPRLLIYAASNLESGIPARFSGSGSGTDFTLTISSLEPEDFAVYYCQQSNEDPYTFGQGTKVEIK; 0.000934

Next up:
Q: Reported koff for h22E11-VK4-1 × h22E11-VH1-69 (antibody, V domains shown, Humanized m22E11) VH: QVQLVQSGAEVKKPGSSVKVSCKVSGFSLTSYGVHWVRQAPGQGLEWLVVIWSDGSTTYNQKFQGRVTITKDESTSTVYMELSSLRSEDTAVYYCARQGGYRYDDAMDYWGQGTLVTVSS VL: DIVLTQSPDSLAVSLGERATINCKASQSVDYDGNSYVNWYQQKPGQPPKLLIYAASNLESGVPDRFSGSGSGTDFTLTISSLQAEDVAVYYCQQSNEDPYTFGQGTKVEIK : what is it?
A: 0.000863
